Recorded pEC50 by entry
Target: Nuclear receptor subfamily 1 group D member 1 (Homo sapiens, UniProt P20393)
Sequence (P20393 whole entry): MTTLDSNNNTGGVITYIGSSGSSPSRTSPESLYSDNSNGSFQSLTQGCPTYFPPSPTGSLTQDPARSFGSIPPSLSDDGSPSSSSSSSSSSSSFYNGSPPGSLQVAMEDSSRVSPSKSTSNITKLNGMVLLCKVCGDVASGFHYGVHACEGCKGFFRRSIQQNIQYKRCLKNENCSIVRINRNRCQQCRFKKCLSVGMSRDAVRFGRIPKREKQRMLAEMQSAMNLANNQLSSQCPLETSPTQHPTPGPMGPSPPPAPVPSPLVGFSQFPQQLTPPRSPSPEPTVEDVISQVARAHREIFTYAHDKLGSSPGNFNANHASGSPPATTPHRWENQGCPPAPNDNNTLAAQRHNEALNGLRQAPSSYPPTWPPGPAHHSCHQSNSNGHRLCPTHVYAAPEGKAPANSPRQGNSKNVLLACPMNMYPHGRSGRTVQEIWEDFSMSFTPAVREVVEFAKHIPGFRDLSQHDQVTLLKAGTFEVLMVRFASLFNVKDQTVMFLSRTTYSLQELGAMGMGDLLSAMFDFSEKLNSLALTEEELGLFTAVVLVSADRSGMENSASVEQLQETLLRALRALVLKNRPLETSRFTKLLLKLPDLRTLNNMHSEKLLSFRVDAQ
Experiment: Agonist activity at Rev-Erbalpha expressed in HEK293 cells coexpressing […] promoter assessed as repression of transcription after 24 hrs by dual-Glo luciferase assay
# pEC50 = -log10(concentration in molar units)

The cases that follow already have their pEC50 on record.
{"columns": ["Compound", "pEC50"],
 "data": [
  ["N#CCN(Cc1ccc(Cl)cc1)Cc1ccc([N+](=O)[O-])s1", 5.60],
  ["CC(C)(C)OC(=O)CN(Cc1ccc([N+](=O)[O-])s1)C(=O)c1cccc2ccccc12", 5.59],
  ["COC(=O)CN(Cc1ccc(Cl)cc1)Cc1ccc([N+](=O)[O-])s1", 5.41],
  ["O=[N+]([O-])c1ccc(CN(Cc2ccc(Cl)cc2)CC2CCCCC2)s1", 5.13]
]}

Kindly consider the entry below.
Summary for this compound, "O=[N+]([O-])c1ccc(CN(Cc2ccc(Cl)cc2)Cc2ccc(C(F)(F)F)cc2)s1" : pEC50 is 5.26
